# TARGET OF ASSAY: c-Src SH2;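 further: peptide library displayed on the E. coli surface as eCPX fusions, selected cells deep-sequenced, score is each peptide's frequency after selection divided by its frequency in the input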
# ASSAY DETAILS: SH2 binding enrichment of the phosphorylated peptide, bacterial display (enrichment ratio); higher = better substrate or ligand; peptides without Tyr show the background
OUTCOME MEASURE: SH2 binding enrichment

1) CTTIHYNYICN [TP53_Y234_M237I]
9.21

Give SH2 binding enrichment for each listed item.
1. LPVHFYGHVEH [PYGM_Y204]
2. AVLSLYASDRT [ACTA1_Y145_G148D]
3. TDLAFYLVRKG [ASL_Y376_YF]
4. AELVPYFMEHH [PTPN11_Y80_Q79P_YF]
5. FLTLHYDAKPQ [ANG_Y38_Q36L]
6. ESKAGYRVPRS [CLDN7_Y195]

1: 1.48; 2: 0.452; 3: 0.693; 4: 0.607; 5: 0.653; 6: 0.544

Give SH2 binding enrichment for each listed item.
1. FFRKVYHLASV [RBL1_Y796_YF]
2. VIVRMYDFHVL [RPF2_Y109_G106V_YF]

1. 0.667
2. 1.12

Give SH2 binding enrichment for each listed item.
1. EAKENYGKTLK [CHL1_Y291_T287A]
2. IFRASYFRRGD [LTK_Y676_YF]
3. TCRPPYFHRNC [HGD_Y333_F329C_YF]
4. EPAVLYNLKDR [MYH7_Y103]
5. SKEPYYVHCIK [MYO1D_Y586_R588H]

[0.432, 0.315, 1, 0.374, 0.81]
